biological target: Mannose-6-phosphate isomerase (Homo sapiens) (UniProt P34949); assay: inhibitors of human PMI, primary screen, biochemical, fluorescence intensity, coupled assay (AID 1209); conditions: purified PMI enzyme, at 20 µM, active compounds read high;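 further: plate controls were DMSO vehicle for no effect and wells lacking substrate for full effect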
Sequence (P34949 whole entry, looked up): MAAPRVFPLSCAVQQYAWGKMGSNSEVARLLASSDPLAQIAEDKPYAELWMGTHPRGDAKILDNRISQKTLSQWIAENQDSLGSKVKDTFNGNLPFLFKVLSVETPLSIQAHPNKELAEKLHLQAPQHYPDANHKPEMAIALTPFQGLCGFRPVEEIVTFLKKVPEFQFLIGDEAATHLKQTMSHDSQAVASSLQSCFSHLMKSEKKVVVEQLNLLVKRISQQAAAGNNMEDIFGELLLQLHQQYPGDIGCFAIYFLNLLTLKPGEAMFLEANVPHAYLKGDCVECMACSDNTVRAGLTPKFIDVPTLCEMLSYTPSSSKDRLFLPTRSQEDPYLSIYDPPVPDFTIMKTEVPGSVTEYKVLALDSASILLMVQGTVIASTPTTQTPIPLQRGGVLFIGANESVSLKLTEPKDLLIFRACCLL
The campaign covered roughly 190,000 compounds. About 810 (0.43%) were called active. For the sample, actives were picked, then their nearest neighbours and some compounds at random.

compound	inhibition, %
COC(=O)C1=C(C(=O)OC)SC2(S1)C(C(=O)OC)=C(C(=O)OC)SC1=C2c2cccc(C)c2NC1(C)C	24.5
CC(C)CN(CC(C)C)S(=O)(=O)N1CCC(C(=O)NCc2ccc(F)cc2)CC1	2.6
N#Cc1c(N2CCN(c3ccc(F)cc3)CC2)nc(N)c2c(N)nc3c(c12)CC(=O)N3C1CC1	56.9
O=C(NCCc1ccccc1)c1ccccc1NC(=O)C1CC=CCC1C(=O)O (stereo unspecified)	5.2
N#CCc1c(C#N)c(N)nc(N2CCN(c3ccc(F)cc3)CC2)c1C#N	2.2
O=C(NCC1CCCO1)C1CC1(c1ccccc1)c1ccccc1 (stereo unspecified)	108
N#CC1=C2SCN(Cc3ccco3)CN2C(=O)CC1c1c(F)cccc1Cl (stereo unspecified)	-3.1
COc1cc(C2NC(=O)NC(c3ccccc3)=C2C(C)=O)ccc1OCC#N (stereo unspecified)	20.2
Cc1nc2ccc(NC(=O)N(C(C)C)C(C)C)cc2s1	3
CS(=O)(=O)N1N=C(c2ccc(Br)cc2)CC1c1cccs1 (stereo unspecified)	12.1
Cn1nnnc1SCc1ccc(C(=O)Nc2ccccc2F)cc1	9
CN(CCO)c1nc(N)c2c(N)nc3c(c2c1C#N)CC(=O)N3Cc1cccs1	13.6
O=C(Nc1nc2ccc(S(=O)(=O)N3CCCC3)cc2s1)C1CCCCC1	7.3
O=C(CC1C(=O)NC2CCCCC2N1C(=O)c1ccc(F)cc1)Nc1ccccc1 (stereo unspecified)	0.9
COc1ccc(Br)cc1C1CC(=O)N2CN(Cc3ccccc3)CSC2=C1C#N (stereo unspecified)	34.2
CC(C)(C)NC(=O)NC(=O)COC(=O)Cc1coc2ccc3ccccc3c12	25.3
Cc1cccc(C2(c3cccc(C)c3)CC2C(=O)NCC2CCCO2)c1 (stereo unspecified)	-4.2
CCOC(=O)C1CCN(CC(O)COCc2cccs2)CC1 (stereo unspecified)	-1.6
Cc1ccc(C)c(NC(=O)CSc2ccc(-c3ccco3)nn2)c1	8.2
CCOC(=O)C1=C(N)Oc2cc(C)n(C)c(=O)c2C1c1ccncc1 (stereo unspecified)	10
O=C1/C(=C/c2cccnc2)SC(=NCc2ccccc2)N1Cc1ccccc1	7.3
CC(C)(C)NC(=O)Nc1ccc2nccnc2c1	4.4
Cc1ccc(C2CC(=O)N3CN(Cc4ccco4)CSC3=C2C#N)cc1 (stereo unspecified)	29.7
CCOP(=O)(OCC)C(Nc1ccc(C)cc1)c1ccco1 (stereo unspecified)	-14.5
COc1ccc(CN2C(=O)Cc3c2nc(N)c2c(N)nc(N4CCCCC4)c(C#N)c32)cc1	40.5
CC(C)c1ccc(C2CC(=O)N3CN(C)CSC3=C2C#N)cc1 (stereo unspecified)	40.6
N#CC1=C2SCN(Cc3ccco3)CN2C(=O)CC1c1cccc2ccccc12 (stereo unspecified)	55
C=C(C)CN(CC)c1nc(N)c2c(N)nc3c(c2c1C#N)CC(=O)N3C12CC3CC(CC(C3)C1)C2	2.4
N#Cc1c(N2CCCC(O)C2)nc(N)c2c(N)nc3c(c12)CC(=O)N3C12CC3CC(CC(C3)C1)C2 (stereo unspecified)	64.7
Cc1cc(C)nc(N2CCCC(C(=O)Nc3nnc(C)s3)C2)n1 (stereo unspecified)	-13.6
CC(C)N(C(=O)Nc1ccc2nccnc2c1)C(C)C	65.4
COC(=O)C1=C(C(=O)OC)SC2(S1)C(C(=O)OC)=C(C(=O)OC)SC1=C2c2cc(C)cc(C)c2NC1(C)C	18.1
CCN(C(=O)c1cn(CC)c(=O)c2cc(OC)c(OC)cc12)c1ccccc1C	5.3
CCN(CC)c1ccc(NC(=S)Nc2ccc(F)cc2)cc1	53.4
COc1ccc(C(=O)N/N=C(/C)c2cccc(NC(=O)C(F)(F)F)c2)cc1	0.4
O=C(NCC1CCCO1)c1ccccc1 (stereo unspecified)	11.6
Cc1ccc(CC2CC(=O)N(C(Cc3ccccc3)C(=O)O)C2=O)cc1 (stereo unspecified)	0.9
COCCN1C(=O)Cc2c1nc(N)c1c(N)nc(N3CCN(c4ccc(F)cc4)CC3)c(C#N)c21	40.2
CCN(CC)CCNC(=S)Nc1ccc(F)cc1	-2.1
N#CC1=C2SCN(Cc3ccco3)CN2C(=O)CC1c1ccccc1F (stereo unspecified)	43.7
O=C(Cc1ccccc1F)OCC(=O)N1CCN(C(=O)c2ccco2)CC1	-7.8

====

target: Mannose-6-phosphate isomerase (Homo sapiens); experiment: inhibitors of human PMI, primary screen, biochemical, fluorescence intensity, coupled assay (AID 1209); settings: purified PMI enzyme, at 20 µM, active compounds read high;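 further: plate controls were DMSO vehicle for no effect and wells lacking substrate for full effect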
About 810 (0.43%) of roughly 190,000 compounds were called active. Only a selection was taken, and actives are over-represented in it overall.
Outcome: y for inhibition of at least 20%; n for anything lower.

compound	class.label
COc1ccc2c(c1)-c1nc(NC(=O)c3cccs3)sc1CC2	y
Cn1c(SCC(=O)N=Nc2c(O)[nH]c3ccccc23)nc2ccccc21	n
Cc1ccc(S(=O)(=O)ON=C2CCN(S(=O)(=O)c3ccccc3)CC2)cc1	n
COc1ccc2c(c1)-c1nc(N)sc1CC2	y
CC1=C/C(=N\OS(=O)(=O)c2ccccc2)C(C(C)C)=CC1=O	y
CC1=C/C(=N\OS(=O)(=O)c2ccccc2)C=CC1=O	y
CC(C)Cc1nnc(NC(=O)CS(=O)(=O)Cc2ccccc2)s1	n
N#Cc1nc(COc2ccccc2)oc1NCCCn1ccnc1	n
Fc1ccc(C2c3cccn3CCN2C(=S)Nc2cccc(Br)c2)cc1 (configuration not stated)	n
Oc1ccc2ccccc2c1/C=N/c1nc2c(s1)CCCC2	y
CC1=CC(=O)c2ccccc2C1=O	n
COc1ccc2c(c1)-c1nc(NC(=O)c3ccco3)sc1CC2	y
O=C(O)CCC(=O)N1CCN(c2ccc(C(=O)c3ccc(F)cc3)cc2)CC1	n
COc1ccc2c(c1)-c1nc(/N=C/c3ccccc3O)sc1CC2	y
CCCNC(=O)c1ccccc1NC(=O)c1ccccc1SC	n
O=C(CSc1nc2cc(Cl)ccc2s1)Nc1cccc(S(=O)(=O)N2CCOCC2)c1	n
CCC(C)(C)NC(=O)CN(Cc1ccc2c(c1)OCO2)C(=O)CCC(=O)Nc1nccs1	n
CC1=CC(=O)C(C(C)C)=CC1=NC(=O)c1ccc(C)cc1	y
COc1ccc2c(c1)-c1nc(/N=C/c3c(O)ccc4ccccc34)sc1CC2	y
O=S(=O)(O/N=C1\CCCc2ccccc21)c1ccccc1	n
COc1ccc2c(c1)CCc1sc(NC(=O)c3ccc(C)cc3)nc1-2	n
CC1=CC(=O)C=C(C)C1=NOc1ccccc1[N+](=O)[O-]	y

====

target: Mannose-6-phosphate isomerase (Homo sapiens); experiment: inhibitors of human PMI, primary screen, biochemical, fluorescence intensity, coupled assay (AID 1209); conditions: purified PMI enzyme, at 20 µM, active compounds read high;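 further: plate controls were DMSO vehicle for no effect and wells lacking substrate for full effect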
Hit rate of the full screen: of about 190,000 compounds, about 810 (0.43%) were called active. For the sample, actives were picked, then their nearest neighbours and some compounds at random.

compound	unit.tag	inhibition
N#Cc1cccc(N=Cc2c(O)ccc3ccccc23)c1	%	39.3
CC(C)CC(=O)N1CCN(Cc2ccc3c(c2)OCO3)CC1	%	3.6
O=[N+]([O-])c1c(NCCCO)cc(Sc2ccc(Cl)cc2)c2nonc12	%	50.2
O=C(O)CC1S/C(=N/N=C/c2ccc(-c3ccc(Cl)c([N+](=O)[O-])c3)o2)NC1=O (stereo not given)	%	-9
COc1ccc(OC)c(NC(=O)CCNS(=O)(=O)c2cccs2)c1	%	0.3

====

Listed here are compounds together with their documented inhibition.
molecular target: Mannose-6-phosphate isomerase (Homo sapiens); assay: inhibitors of human PMI, primary screen, biochemical, fluorescence intensity, coupled assay (AID 1209); conditions: purified PMI enzyme, at 20 µM, active compounds read high;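 further: plate controls were DMSO vehicle for no effect and wells lacking substrate for full effect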
The whole screen tested about 190,000 compounds, of which about 810 (0.43%) were called active. This excerpt belongs to a sample that is enriched for actives.

compound	inhibition / %
COCc1[nH]nc2c1C(c1ccc(OC)c(OC)c1)C(C#N)=C(N)O2 (stereo not drawn)	2
COc1ccc(/C=C2\N=C(C)N(c3ccc(C(=O)O)cc3)C2=O)cc1OC	-0.2
COc1ccc(N2CCN(C(=O)c3cccn4c(=O)c5ccccc5nc34)CC2)cc1	-5.8
COCc1[nH]nc2c1C(c1cc(OC)c(O)c(OC)c1)C(C#N)=C(N)O2 (stereo not drawn)	53.8
CCN(CC)S(=O)(=O)c1ccc(NC(=O)COC(=O)CNS(=O)(=O)/C=C/c2ccccc2)cc1	5.2
O=C(Cc1csc(NC(=O)c2ccccc2)n1)NO	67.6
C[C@]12CC[C@@H]3c4ccc(O)cc4CC[C@H]3[C@@H]1CC[C@@H]2O	-5.7
S=C(Nc1ccc(Cl)cc1)Nc1ccc2cn[nH]c2c1	23.6
O=C(Cc1csc(NC(=O)c2ccc(F)cc2)n1)NO	0.3
O=C(O)CNC(=O)CC1S/C(=N/N=C/c2ccccc2O)NC1=O (stereo not drawn)	-8.1
C[C@H]1CC[C@H]2C(=O)N3[C@H](c4cccc(N5CCCC5=O)c4)[C@@H](C)CC[C@H]3C(=O)N2[C@@H]1c1cccc(N2CCCC2=O)c1	-17.4
O=C(C1CCN(S(=O)(=O)c2cccc3cccnc23)CC1)N1CCN(c2ccccc2)CC1	13.6
COc1ccccc1NC(=O)Cc1csc(NC(=O)c2ccccc2)n1	5.9
